# target-system: T1, cynomolgus ICOS-Fc (homodimeric, bivalent) (cynomolgus monkey, UniProt Q9Y6W8 21-140 (human entry))
# T1 construct: also called cynoICOS-Fc; cyno ICOS-Fc; not shown: human IgG1 Fc (IgG1 backbone)
# T1 chain: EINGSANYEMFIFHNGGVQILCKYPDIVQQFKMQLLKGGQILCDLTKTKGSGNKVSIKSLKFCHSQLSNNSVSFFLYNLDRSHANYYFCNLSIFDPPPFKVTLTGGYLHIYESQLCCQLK
# test: BLI, bivalent binding to homodimeric ICOS-Fc
quantity-kind: kon (M⁻¹ s⁻¹)
Write it as a number; the unit M⁻¹ s⁻¹ goes unstated.

16G10 (antibody, V domains shown, Armenian hamster monoclonal tested as IgG; also called hamster anti-ICOS 16G10) VH: EVQLVESGGGLVKPGGSLKLSCAASGFTFSDYWMDWVRQAPGKGLEWVGNIDHDGNIINFAPSVKGRFTISRDNAKNTLYLQMNSVKSEDTATYYCARWGHYAFDSWGQGTLVTVSS VL: DIVMTQSPSSLAVSAGDKVTINCKSSQSLLSSGYNYLIWYQQKTGQAPKLLIFYASTRHTGVPDRFIGSGSGTDFTLTITSFQTEDLGDYYCQHHYSSPPTFGPGTKLEIK yielded kon of 647000

35A9 (antibody, V domains shown, Armenian hamster monoclonal tested as IgG; also called hamster anti-ICOS 35A9) VH: EVQLVESGGGLVKPGGSLKLSCAASGFTFSDYWMDWVRQAPGKGLEWVGNIDEDGSIAEYSPFVKGRFTISRDNVKNTLYLQMNSVKSEDTATYYCSRWGRFAFDSWGQGTLVTVSS VL: DIVMTQSPSSLAVSAGDRVTINCKSSQSLLSGSFNYLTWYQQKTGQAPKLLIFYASTRHTGVPDRFMGSGSGTDFTLTINSFQTEDLGDYYCHHHYNAPPTFGPGTKLELR yielded kon of 740000

7F12 (antibody, V domains shown, Armenian hamster monoclonal tested as IgG; also called hamster anti-ICOS 7F12) VH: EVQLVESGGGLVKPGGSLTLSCAASGFTFSDYWMDWVRQGPGKGLEWVGNIDEDGSTTYYAPFVKGRFTISRDNAKKTLYLQMNSVKSEDTATYYCTRWGRYAFDSWGQGTLVTVSS VL: DIVMTQSPSSLAVSPGDKVTINCKSSQSLLSGNYNYLAWYQQKTGQAPKLLIFYASTRHTGVPDRFMGSGSGTDFSLTINSFQTEDLGDYYCQHHYSTPPTFGPGTKLEIK yielded kon of 585000

36E10 (antibody, V domains shown, Armenian hamster monoclonal tested as IgG; also called hamster anti-ICOS 36E10) VH: EVQLVESGGGLVKPGGSLKLSCAASGFTFSDYWMDWVRQAPGKGLEWVGNIDEDGSITEYSPFVKGRFTISRDNVKNILYLQMNSVKSEDTATYYCTRWGRFAFDSWGQGTLVTVSS VL: DIVMTQSPSSLAVSPGDRVTINCKSSQSLLSGSFHYLTWYQQKTGQAPKLLIFYASTRHTGVPDRFMGSGSGTDFTLTINSFQTEDLGDYYCHHHYNAPPTFGPGTKLELR yielded kon of 697000

37A10 (antibody, V domains shown, Armenian hamster monoclonal tested as IgG; also called hamster anti-ICOS 37A10) VH: EVQLVESGGGLVKPGGSLKLSCAASGFTFSDYWMDWVRQAPGKGLEWVGNIDEDGSITEYSPFVKGRFTISRDNVKNTLYLQMNSVKSEDTATYYCTRWGRFGFDSWGQGTLVTVSS VL: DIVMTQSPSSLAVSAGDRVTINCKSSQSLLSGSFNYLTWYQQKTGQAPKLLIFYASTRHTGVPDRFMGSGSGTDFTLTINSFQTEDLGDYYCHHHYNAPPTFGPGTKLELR yielded kon of 712000
